# System: PRKCE
# experimental parameters: concentration: 1 μM, replicates: in singlicate; n = 1;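 note: KINOMEscan kinase panel screen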
// label = Criterion met if %Inh is not less than 5%, otherwise Criterion not met

Qu. API: above_or_equal(metric=%Inh, cutoff=5%) for item Cc1nnc(-c2ccc3occ(-c4ccc(C(C)O)cc4)c3c2)o1 (stereo not drawn)
Ans. Criterion not met

Qu. API: above_or_equal(metric=%Inh, cutoff=5%) for item "O=C1Cc2cc(Nc3nc(NCc4cccc(S(=O)(=O)C(F)(F)F)c4)ncc3C(F)(F)F)ccc2N1"
Ans. Criterion met

Qu. API: above_or_equal(metric=%Inh, cutoff=5%) for item "O=c1cc(N2CCOCC2)nc2n(Cc3cccc4ccccc34)ccn12"
Ans. Criterion not met

Qu. API: above_or_equal(metric=%Inh, cutoff=5%) for item "Cc1cccc(-c2nc(-c3ccc(S(C)(=O)=O)cc3)sc2-c2ccncc2)c1"
Ans. Criterion met

Qu. API: above_or_equal(metric=%Inh, cutoff=5%) for item "Cc1cn2c(=O)cc(N3CCOCC3)nc2n1Cc1cccc(Cl)c1Cl"
Ans. Criterion met

----------
# Tested on: SBK1
# experimental parameters: concentration: 1 μM, replicates: in singlicate; n = 1
readout: %Inh (%)
Quick reminder: number only, in %, skip the unit.

compound "CNc1ncnc2[nH]ncc12" , %Inh observed: 0

compound COc1ccc(Nc2nccc(N3CCC(NC(=O)Nc4cccc(C(C)=O)c4)C3)n2)cc1 (centres unmarked) , %Inh observed: 20

compound "O=c1cc(N2CCOCC2)nc2n(Cc3cccc(Cl)c3Cl)c(C3CC3)nn12" , %Inh observed: 0

compound "COc1cc2c(cc1OC[C@@H](O)CO)ncc1c3ccc(C#N)cc3[nH]c21" , %Inh observed: 71

compound "CC(C)(C)n1cnc2c(N)ncnc21" , %Inh observed: 0

----------
# Tested on: PKN2
# experimental parameters: concentration: 1 μM, replicates: in singlicate; n = 1
For each of the molecules below, state its %Inh.
Quick reminder: number only, in %, skip the unit.

molecule Cc1c(Cn2c(C)nn3c(=O)cc(N4CCOC(C)C4)nc23)cccc1C(F)(F)F (stereo not drawn) , %Inh observed: 0

molecule "Cc1ccc(NC(=O)c2ccnc(N3CCN(C)CC3)c2)cc1-c1ccc(C(=O)NCC2CC2)cc1" , %Inh observed: 0

molecule "CN1c2ccc(NCc3ccc(F)cc3)cc2-c2c(cnn2C)S1(=O)=O" , %Inh observed: 0

molecule "Cc1nnc(-c2ccc(C)c(-c3ccc(C(=O)Nc4ccc(NS(C)(=O)=O)cc4)cc3)c2)o1" , %Inh observed: 15

molecule "COc1cc2c(cc1OC[C@@H](O)CO)ncc1c3ccc(C#N)cc3[nH]c21" , %Inh observed: 33

molecule "Cc1cccc(-c2nc(-c3ccc(S(C)(=O)=O)cc3)sc2-c2ccncc2)c1" , %Inh observed: 0

molecule "O=c1cc(N2CCOCC2)nc2n(Cc3cccc(Cl)c3Cl)c(C3CC3)nn12" , %Inh observed: 0

molecule "O=C(NCCNc1ccnc(Nc2ccc(F)cc2)n1)c1cc2ccccc2s1" , %Inh observed: 0

molecule "Cc1cccc(Cn2ccn3c(=O)cc(N4CCOCC4)nc23)c1" , %Inh observed: 0

----------
For each of the compounds below, state its %Inh.
# Tested on: PAK2
# experimental parameters: concentration: 1 μM, replicates: in singlicate; n = 1

%Inh value, target or system PAK2, for "Nc1nccc(-c2c(-c3ccc(F)cc3)ncn2C2CCN(CC(F)(F)F)CC2)n1" : 0%

%Inh value, target or system PAK2, for COc1ccc(Nc2nccc(N3CCC(NC(=O)Nc4cccc(C(C)=O)c4)C3)n2)cc1 (stereo not drawn) : 6%

%Inh value, target or system PAK2, for "CCCCCc1nc2c(N)ncnc2n1CCCCC" : 67%

%Inh value, target or system PAK2, for "Cl.Nc1ncnc2occ(-c3ccc(NC(=O)Nc4cc(C(F)(F)F)ccc4F)cc3)c12" : 30%

%Inh value, target or system PAK2, for COc1ccc(CNC(=O)NC2CCN(c3ccnc(Nc4ccc(OC)cc4)n3)C2)cc1 (stereo not drawn) : 0%

%Inh value, target or system PAK2, for "O=C(NCCNc1ccnc(Nc2ccc(F)cc2)n1)Nc1ccccc1F" : 0%

%Inh value, target or system PAK2, for "Fc1ccc(-c2ncn(CCCN3CCOCC3)c2-c2cccnc2)cc1" : 23%

%Inh value, target or system PAK2, for "CCc1ccnc(/C=C/c2n[nH]c3cc(Sc4ccccc4C(=O)NC)ccc23)c1" : 0%

%Inh value, target or system PAK2, for "O=c1cc(N2CCOCC2)nc2n(Cc3cccc(C(F)(F)F)c3)ccn12" : 14%
